Quick reference for shrunken log2 fold change among some sequences
System: Escherichia coli TOP10;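 note: peptides expressed intracellularly from a pBAD plasmid library in pooled LB shake-flask culture, induced with 0.3% L-arabinose, DNA abundance read by NGS, three biological replicates, DESeq2 with apeglm shrinkage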
Test: shrunken log2 fold change of peptide-encoding DNA abundance (4.5 h post-induction vs induction); higher = less antimicrobial activity (less host growth inhibition)
Settings: time post-induction: 4.5 h; library: site-saturation at positions 5, 18, 19, 20
Respond numerically, and do not add a unit to the figure.

> print(dat)
         constructsequence  observedvalue
1  RRIRHRPPRLPRPRPRPHFTPRP          -0.67
2  RRIRARPPRLPRPRPRPQDAPRP          0.215
3  RRIRQRPPRLPRPRPRPTCQPRP         -0.125
4  RRIRKRPPRLPRPRPRPVPVPRP          0.253
5  RRIRKRPPRLPRPRPRPWLFPRP          0.202

May I ask what shrunken log2 fold change has been recorded for RRIRCRPPRLPRPRPRPEGYPRP ? 0.461

Repeat for the following sequence: RRIRHRPPRLPRPRPRPDSKPRP -0.362

Repeat for the following sequence: RRIRMRPPRLPRPRPRPSRMPRP 0.454

Repeat for the following sequence: RRIRIRPPRLPRPRPRPMNDPRP -0.00303

Repeat for the following sequence: RRIRNRPPRLPRPRPRPTYAPRP 0.027

Repeat for the following sequence: RRIRRRPPRLPRPRPRPPNGPRP 0.407

Repeat for the following sequence: RRIRHRPPRLPRPRPRPGRYPRP -0.017

Repeat for the following sequence: RRIRYRPPRLPRPRPRPQFRPRP -0.18

Repeat for the following sequence: RRIRIRPPRLPRPRPRPAKMPRP -0.101

Repeat for the following sequence: RRIRPRPPRLPRPRPRPLLMPRP -0.185

Repeat for the following sequence: RRIRLRPPRLPRPRPRPQEIPRP -0.0701

Repeat for the following sequence: RRIRHRPPRLPRPRPRPTALPRP 0.0443

Repeat for the following sequence: RRIRSRPPRLPRPRPRPDMVPRP -0.00858

Repeat for the following sequence: RRIRDRPPRLPRPRPRPWMCPRP -0.0722

Repeat for the following sequence: RRIRLRPPRLPRPRPRPVFQPRP 0.042

Repeat for the following sequence: RRIRTRPPRLPRPRPRPVPRPRP 0.315

Repeat for the following sequence: RRIRQRPPRLPRPRPRPQLYPRP 0.119

Repeat for the following sequence: RRIRPRPPRLPRPRPRPEPNPRP 0.293

Repeat for the following sequence: RRIRARPPRLPRPRPRPAQCPRP 0.469

Repeat for the following sequence: RRIRCRPPRLPRPRPRPSMPPRP -0.558

Repeat for the following sequence: RRIRHRPPRLPRPRPRPLQHPRP 0.0675

Repeat for the following sequence: RRIRIRPPRLPRPRPRPSVGPRP -0.261

The reported numbers originate from the supplement of paper PMC9112550.
